# ASSAYED SYSTEM: Pepsin A (Sus scrofa) (UniProt P00791)
# Sequence (P00791 60-385 limits assumed): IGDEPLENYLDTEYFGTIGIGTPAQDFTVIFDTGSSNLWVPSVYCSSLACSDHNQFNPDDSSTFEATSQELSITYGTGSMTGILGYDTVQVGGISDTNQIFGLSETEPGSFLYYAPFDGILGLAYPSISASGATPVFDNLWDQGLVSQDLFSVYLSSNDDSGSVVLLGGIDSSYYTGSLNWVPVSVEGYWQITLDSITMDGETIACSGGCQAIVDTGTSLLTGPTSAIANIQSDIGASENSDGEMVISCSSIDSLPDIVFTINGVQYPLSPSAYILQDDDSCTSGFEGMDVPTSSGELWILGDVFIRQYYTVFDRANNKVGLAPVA
# TEST: Percent inhibition against porcine pepsin at a concentration of 1 x 10 e-5 M and pH 2
ENDPOINT: inhibition (%)
Record the value in %, omitting the unit from your answer.

Solved entries:
| CHEM SMILES | ASSAYED SYSTEM | inhibition, % |
| --- | --- | --- |
| CC(C)(C)OC(=O)N[C@@H](Cc1ccccc1)C(=O)N[C@@H](Cc1c[nH]cn1)C(=O)N[C@@H](CC1CCCCC1)[C@@H](O)[C@@H](O)CN=[N+]=[N-] | Pepsin A (Sus scrofa) (UniProt P00791) | 0 |
| CON1C[C@@H]([C@H](O)[C@H](CC2CCCCC2)NC(=O)[C@H](Cc2c[nH]cn2)NC(=O)[C@H](Cc2ccccc2)NC(=O)OC(C)(C)C)OC1=O | Pepsin A (Sus scrofa) (UniProt P00791) | 0 |
| C[C@@H]1CO[C@H]([C@H](O)[C@H](CC2CCCCC2)NC(=O)[C@H](Cc2c[nH]cn2)NC(=O)[C@H](Cc2ccccc2)NC(=O)OC(C)(C)C)C1 | Pepsin A (Sus scrofa) (UniProt P00791) | 2 |

Enquiry: # inhibition lookup, item CC(C)C[C@H](O)[C@H](O)[C@H](CC1CCCCC1)NC(=O)[C@H](Cc1c[nH]cn1)NC(=O)[C@H](Cc1ccccc1)NC(=O)OC(C)(C)C
Return: 0

Enquiry: # inhibition lookup, item CCN1C[C@@H]([C@H](O)[C@H](CC2CCCCC2)NC(=O)[C@H](Cc2c[nH]cn2)NC(=O)[C@H](Cc2ccccc2)NC(=O)OC(C)(C)C)OC1=O
Return: 0

###

Some compounds, each annotated with its measured IC50.
# ASSAYED SYSTEM: Renin (Homo sapiens)
# Sequence (P00797 whole entry): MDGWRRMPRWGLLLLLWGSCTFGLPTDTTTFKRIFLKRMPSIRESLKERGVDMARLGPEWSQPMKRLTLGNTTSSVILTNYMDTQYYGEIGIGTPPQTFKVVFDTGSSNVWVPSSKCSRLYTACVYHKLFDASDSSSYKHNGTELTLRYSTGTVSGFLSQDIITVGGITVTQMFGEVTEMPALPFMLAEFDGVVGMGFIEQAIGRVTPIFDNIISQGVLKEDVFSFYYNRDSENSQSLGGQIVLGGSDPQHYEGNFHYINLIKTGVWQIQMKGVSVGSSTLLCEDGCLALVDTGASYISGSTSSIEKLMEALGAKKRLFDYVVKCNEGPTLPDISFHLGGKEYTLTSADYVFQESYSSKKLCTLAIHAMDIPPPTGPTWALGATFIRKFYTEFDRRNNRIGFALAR
# TEST: In vitro inhibition of human plasma renin.
# Type: cell-free
Record the value in nM, omitting the unit from your answer.

| CHEM SMILES | ASSAYED SYSTEM | UNIT ANNOTATION | IC50 |
| --- | --- | --- | --- |
| CC(C)(C)OC(=O)N[C@@H](Cc1ccccc1)C(=O)N[C@@H](Cc1c[nH]cn1)C(=O)N[C@@H](CC1CCCCC1)[C@@H](O)[C@@H]1CCNC(=O)O1 | Renin (Homo sapiens) | nM | 29 |
| CC(C)(C)OC(=O)N[C@@H](Cc1ccccc1)C(=O)N[C@@H](Cc1cnc[nH]1)C(=O)N[C@@H](CC1CCCCC1)[C@@H](O)[C@@H](O)CN=[N+]=[N-] | Renin (Homo sapiens) | nM | 9 |
| CC(C)(C)OC(=O)N[C@@H](Cc1ccccc1)C(=O)N[C@@H](Cc1cnc[nH]1)C(=O)N[C@@H](CC1CCCCC1)[C@@H](O)[C@@H]1CC(C)(C)C(=O)O1 | Renin (Homo sapiens) | nM | 2.8 |
| CN1C[C@@H]([C@H](O)[C@H](CC2CCCCC2)NC(=O)[C@H](Cc2c[nH]cn2)NC(=O)[C@H](Cc2ccccc2)NC(=O)OC(C)(C)C)OC1=O | Renin (Homo sapiens) | nM | 8.8 |
| CC(C)CN1C[C@@H]([C@H](O)[C@H](CC2CCCCC2)NC(=O)[C@H](Cc2cnc[nH]2)NC(=O)[C@H](Cc2ccccc2)NC(=O)OC(C)(C)C)OC1=O | Renin (Homo sapiens) | nM | 21 |
| CCN1C[C@@H]([C@H](O)[C@H](CC2CCCCC2)NC(=O)[C@H](Cc2cnc[nH]2)NC(=O)[C@H](Cc2ccccc2)NC(=O)OC(C)(C)C)NC1=O | Renin (Homo sapiens) | nM | 11 |

Switching to the query record.
Enquiry: # IC50 lookup, item CC(C)N1C[C@@H]([C@H](O)[C@H](CC2CCCCC2)NC(=O)[C@H](Cc2cnc[nH]2)NC(=O)[C@H](Cc2ccccc2)NC(=O)OC(C)(C)C)OC1=O
Return: 8.2

Cited source for all entries: ChEMBL document CHEMBL1124786
